System: U2OS
Experiment: Incucyte cell viability with U2OS; also: unitless GR value; below 1 slowed growth and below 0 cell loss
Assay type: toxicity, cell-based
Conditions: human, 6 h, 10 µM, compound concentration 10 uM, replicate number 1, timepoint 6 hours
Collected Growth Rate values appear next to each entry.
Simply state the number, no unit and no words.

Please review the following examples before continuing.
- CCCCCCCCc1ccc(CC[C@](N)(CO)COP(=O)(O)O)cc1: 0.87
- Cl.O=C(O)c1cc(-c2ccc(C3CCNCC3)cc2)c2ccc(-c3ccc(C(F)(F)F)cc3)cc2c1: 0.77
- COc1ccc2c(c1)C(C(=O)N(Cc1ccc(N(C)C)cc1)c1ccc(C(C)C)cc1)CCC2.Cl (stereo not given): 0.25
- Br.Br.c1ncc(CC2CCNCC2)[nH]1: 0.57

Please look at the following compound next.
// query Form field: reported Growth Rate of "COc1ncc2cc(C(=O)Nc3cc(C(=O)NCc4cccc(Cl)c4)ccc3Cl)c(=O)[nH]c2n1"
// result 0.36

###

System: U2OS
Assay: Incucyte cell viability with U2OS; also: unitless GR value; below 1 slowed growth and below 0 cell loss
Type: toxicity, cell-based
Details: human, 18 h, 10 µM, compound concentration 10 uM, replicate number 2, timepoint 18 hours
Where a SMILES comes first, the peptide text is derived from it. Bridges are numbered along the chain shown (N, C = ends). [ ]: non-standard residue; d: D form. Orn = NCCC[C@H](N)C(=O)O; Mpa = O=C(O)CCS
Experimental Readout: Growth Rate
# respond with the number and nothing more

• Cc1cc(CN)cc(C)c1-c1ncn(C)c1-c1ccnc2cc(F)ccc12 = 0.73
• CO[C@H]1CC[C@@H](C(=O)c2ccc3nc4c(cc3c2)CCCO4)CC1 = 0.74
• Cc1cc(NC(=O)NCCN2CCC(O)(Cc3ccccc3)CC2)c2ccccc2n1 = 0.98

// query What reported Growth Rate corresponds to "CCCCOCCOc1nc(-c2ccc(C(=O)O)c(F)c2)sc1C" on U2OS?
// result 0.86

// query Give recorded Growth Rate with U2OS for the following compound: COc1ccc2c(c1)C(C(=O)N(Cc1ccc(N(C)C)cc1)c1ccc(C(C)C)cc1)CCC2.Cl (stereo not given)
// result 0.81

// query API: value(readout= Growth Rate, system= U2OS, query= CCOc1ccc(C[C@H]2NC(=O)CCSSC[C@@H](C(=O)N3CCC[C@H]3C(=O)N[C@@H](CCCN)C(=O)NCC(N)=O)NC(=O)[C@H](CC(N)=O)NC(=O)[C@H]([C@@H](C)O)NC(=O)[C@H]([C@@H](C)CC)NC2=O)cc1 [ATOSIBAN] ([Mpa][dY](Et)ITNCP[Orn]G-NH2; disulfide 1-6) )
// result 0.89

// query What value of Growth Rate on U2OS does CCCCCCCC/C=C\CCCCCCCC(N)=O [OLEAMIDE] have?
// result 0.89

###

Test system: U2OS
Assay: Incucyte cell viability with U2OS; also: unitless GR value; below 1 slowed growth and below 0 cell loss
Assay type: toxicity, cell-based
Conditions: human, 24 h, 10 µM, compound concentration 10 uM, replicate number 1, timepoint 24 hours
Please use condition met for Growth Rate under 0.5 and condition not met for everything else, ties included.

As a guide, the following entries are already answered.
• COc1cc2nc(N(C)CCCNC(=O)C3CCCO3)nc(N)c2cc1OC.Cl (stereo not drawn) [ALFUZOSIN HYDROCHLORIDE] = condition not met
• COC[C@@H](CC(C)C)NC1=N/C(=C\c2ccc3ncsc3c2)C(=O)N1C = condition met
• O=C1NC(Nc2ccccc2)=N/C1=C\c1ccc2c(c1)OCO2 = condition not met
• CO/C1=C/C(C)=C\[C@@H](C)[C@@H](O)[C@@H](C)C/C(C)=C\C=C/[C@H](OC)C([C@@H](C)[C@@H](O)[C@H](C)[C@@]2(O)C[C@@H](O)[C@H](C)[C@@H](C(C)C)O2)OC1=O (stereo partly drawn) = condition met
• CN1CCN2c3ncccc3Cc3ccccc3C2C1 (stereo not drawn) [MIRTAZAPINE] = condition not met

// query I wonder whether CCNC(=O)c1cc2c(-c3cc(C(C)(C)O)ccc3Oc3c(C)cc(F)cc3C)cn(C)c(=O)c2[nH]1 [ABBV-744] has Growth Rate below 0.5. Can you tell?
// result condition met

// query Determine if "CN(C)C(=O)Cn1cc(-c2ccc(-c3cncc4ccccc34)cc2)cn1" shows Growth Rate strictly lower than 0.5.
// result condition not met
